Recorded B*08:01 In Vitro Score, one value per entry.
Molecular target: HLA-B*08:01 (Homo sapiens, UniProt P01889, A93T/A95T/D138N/E176V/E187T/K202T/Q94N/R180D/S35A/V36M/Y33D/Y91F)
Experiment: REVEAL Epitope Discovery System in vitro MHC-peptide binding assay
Conditions: binding normalized to positive control peptide set at 100%, >50 considered good or high affinity binding
No end group written: not given here.
Attribute Measured: B*08:01 In Vitro Score

Monomer Sequence	Endpoint Result
FWVKRGHKK	0.40
FIIFWVHRG	0.20
FWVKRGRKK	0.00
VAFIIFWVS	0.10
FIIFWVSRG	0.40
IIFWVKRGA	0.90
IIFWVQRGA	0.20
IIFWVKRGL	1.70
FWVKRGSKK	0.10

* * *

Molecular target: HLA-A*11:01 (Homo sapiens, UniProt P04439, A114D/D185E/E176A/F33Y/L180Q/S129P/T187R)
Assay: REVEAL Epitope Discovery System in vitro MHC-peptide binding assay
Details: binding normalized to positive control peptide set at 100%, >50 considered good or high affinity binding
No end group written: not given here.
Returns t if the recorded A*11:01 In Vitro Score is greater than or equal to 30, and f otherwise.

Monomer Sequence	Qualitative Label
WVQRGNKKA	f
FWVQRGAKK	f
AFIIFWVLR	f
IIFWVKRGH	f
FIIFWVSRG	f
WVKRGRKKS	f
WVKRGSKKL	f
WVQRGNKKL	f
FWVLRGRKK	f
IFWVQRGRK	t
IFWVKRGAK	t
IIFWVQRGA	t
IFWVHRGRK	t
IIFWVKRGL	t
VAFIIFWVR	t
WVKRGRKKL	f
IIFWVQRGR	t
